EXPERIMENT: A CellTox Green Cytotoxicity Assay to monitor cytotoxicity in HepG2 cells - 32 hour (AID 1224883); further: on the % scale 0 is the no-effect control and ±100 the full control effect; nearly all actives have a fitted effect of over 50% in size
STATED CONDITIONS: CellTox Green fluorescence; series mostly up to 76.8 µM
Excerpt: National Center for Advancing Translational Sciences [NCATS] NIH Chemical Genomics Center [NCGC] U.S. Environmental Protection Agency [EPA] National Institutes of Environmental Health Sciences [NIEHS] National Toxicology Program [NTP] Cell-based models are critical for drug discovery. […] Viable cells produce no appreciable increases in fluorescence. Therefore, the fluorescence signal produced by the binding interaction with dead cell DNA is proportional to cytotoxicity. […]
Inconclusive results are not listed. Activity calls are given as the source filed them. The call rests on the fitted dose curve; in most records, active means well fitted activation curve with a large enough effect in the repeat runs; inconclusive means weak or mixed curves; inactive means flat fitted curve, though single readings scatter.

MOLECULE | cytotoxicity increase
O=C1OC(=O)C2CCCCC12 (stereo not drawn) | inactive
O=C(O)CN(CCOCCOCCN(CC(=O)O)CC(=O)O)CC(=O)O | -22.8% [at 0.29 µM] (inactive)
OCCOc1ccc(OCCO)cc1 | inactive
N=C(N)c1ccc2cc(OC(=O)c3ccc(N=C(N)N)cc3)ccc2c1 | inactive
CCCN(CCC)CCc1cccc2c1CC(=O)N2 | inactive
NCCCNCCSP(=O)(O)O | -8.01% [at 6.97 µM] (inactive)
CCN(CC)CCOCCOC(=O)C1(c2ccccc2)CCCC1 | inactive
CC(NC(CCc1ccccc1)C(=O)O)C(=O)N1C(=O)N(C)CC1C(=O)O (stereo not drawn) | inactive
CCc1ccc(O)c(OC)c1 | inactive
O=C1NC(=O)[C@@]2(CCOc3ccc(F)cc32)N1 | inactive
c1cnc(N2CCN(Cc3ccc4c(c3)OCO4)CC2)nc1 | inactive
Nc1c[n+](N2CCOCC2)no1 | inactive
O=C[C@H](O)[C@@H](O)[C@H](O)[C@H](O)CO | inactive

* * *

EXPERIMENT: qHTS assay to identify small molecule agonists of the estrogen receptor beta (ER-beta) signaling pathway - cell viability counter screen (AID 1259380); further: on the % scale 0 is the no-effect control and ±100 the full control effect; nearly all actives have a fitted effect of over 30% in size
STATED CONDITIONS: ER-beta-bla HEK293T viability, CellTiter-Glo luminescence, 16 h; series mostly up to 92.4 µM
Records with an inconclusive call do not appear. The source made the active and inactive calls. Calls follow the shape of the dose curve; as a rule, active = well fitted cell-killing curve with a large enough effect in the repeat runs; inconclusive = weak or mixed curves, or effect the other way; inactive = flat fitted curve, though single readings scatter.

MOLECULE | activity change, negative = cytotoxicity
Cn1c(N)c(N=O)c(=O)n(C)c1=O | inactive
COCCc1ccc(OCC(O)CNC(C)C)cc1 (stereo not drawn) | inactive
Nc1c2c(nc3ccccc13)CCCC2O (stereo not drawn) | inactive
CN1CCC(=C2c3ccccc3CC(=O)c3sccc32)CC1 | inactive
CO[Si](CCCOCC1CO1)(OC)OC (stereo not drawn) | inactive
CC(NC(CCc1ccccc1)C(=O)O)C(=O)N1C(=O)N(C)CC1C(=O)O (stereo not drawn) | inactive
CCOC(=O)CCC(C)=O | inactive
COC(=O)c1ccc(C)cc1C1=NC(C)(C(C)C)C(=O)N1 (stereo not drawn) | inactive
COC(=O)CC(C)=O | inactive
COCCCOCCCOC | inactive
CC(=O)Nc1ccc(S(N)(=O)=O)cc1 | inactive
C/C=C(\C)C#N | inactive
COC(=O)c1c(Cl)c(Cl)c(C(=O)OC)c(Cl)c1Cl | inactive
CC(C)(CC(=O)O)C(=O)O | inactive
CC(C)=CCCC(C)CC(=O)O (stereo not drawn) | inactive
CCCCOCCOCCOCCCC | inactive
NS(=O)(=O)c1cc(C(=O)O)cc(N2CCCC2)c1Oc1ccccc1 | inactive
CCOC(=O)Nc1ccc(NCc2ccc(F)cc2)nc1N | inactive
O=c1n(CCO)c(=O)n(CCO)c(=O)n1CCO | inactive
OC[C@]1(O)OC[C@@H](O)[C@H](O)[C@@H]1O | inactive
CN1C(=O)N(C)C(O)C1O (stereo not drawn) | inactive
COc1ccc2c(c1)c(CC(=O)OCC(=O)O)c(C)n2C(=O)c1ccc(Cl)cc1 | inactive
CCOC(=O)C(=O)OCC | inactive
O=C1CCCN1C1CCCCC1 | inactive
CC1(C)C(O)C(C)(C)C1O (stereo not drawn) | inactive
C=C(C)CS(=O)(=O)O | inactive
O=[N+]([O-])c1ccc(F)cc1F | inactive
CCC(C)C1CCCCC1=O (stereo not drawn) | inactive
CC(C[N+](C)(C)C)OC(N)=O (stereo not drawn) | inactive
N=C(N)c1ccc(OCCCOc2ccc(C(=N)N)cc2)cc1 | inactive
CCc1cccc2c(CCO)c[nH]c12 | inactive
COC(=O)c1cc(C(=O)OC)cc(S(=O)(=O)O)c1 | inactive
c1cnc(N2CCN(Cc3ccc4c(c3)OCO4)CC2)nc1 | inactive
CC(C)NCC(O)c1ccc(NS(C)(=O)=O)cc1 (stereo not drawn) | inactive
CC(=O)CC(C)(C)C1CCCCC1 | inactive
CN1CCCC1 | inactive
CCN(CC)CCOCCOC(=O)C1(c2ccccc2)CCCC1 | inactive
COc1c(N2C[C@@H]3CCCN[C@@H]3C2)c(F)cc2c(=O)c(C(=O)O)cn(C3CC3)c12 | inactive
CCCCCSCCCCC | inactive
O=C1CC2CC1C1CCCC21 (stereo not drawn) | inactive
CCCCOCCOCCOCc1cc2c(cc1CCC)OCO2 | inactive
COC(=O)NN | inactive
CCOC(=O)c1ccc(C)cc1 | inactive
NCCc1cnc[nH]1 | inactive
NS(=O)(=O)c1cc(C(=O)NN2C[C@H]3[C@H]4CCC(C4)[C@H]3C2)ccc1Cl | inactive
CCOC(=O)CC(C)=O | inactive
C=COCC1CCC(CO)CC1 (stereo not drawn) | inactive
O=C(O)CN(CCOCCOCCN(CC(=O)O)CC(=O)O)CC(=O)O | 9.83% [at 0.349 µM] (inactive)
COc1nc(N)nc2c1ncn2[C@@H]1O[C@H](CO)[C@@H](O)[C@@H]1O | inactive
CC/C=C\CC/C=C/CO | inactive
NC(CSCC(=O)O)C(=O)O (stereo not drawn) | inactive
CCCN1CCCC[C@H]1C(=O)Nc1c(C)cccc1C | inactive
NS(=O)(=O)c1ccccc1Cl | inactive
CC(C)c1cc2c(cc1S(=O)(=O)O)[C@@]1(C)CCC[C@@](C)(C(=O)O)[C@@H]1CC2 | inactive
CN(C(=O)c1c(O)c2ccccc2n(C)c1=O)c1ccccc1 | inactive
CC(C)NCCCC1(C(N)=O)c2ccccc2-c2ccccc21 | inactive
C=C1CC[C@H]2C[C@@H]1C2(C)C | inactive
CN(C)CCCNCCCN(C)C | inactive

* * *

EXPERIMENT: qHTS assay to identify small molecule antagonists of the estrogen receptor alpha (ER-alpha) signaling pathway using the BG1 cell line in the presence of 0.1 nM 17-beta-estradiol - cell viability counter screen (AID 1259241); further: on the % scale 0 is the no-effect control and ±100 the full control effect; nearly all actives have a fitted effect of over 40% in size
STATED CONDITIONS: VM7Luc4E2 (BG1) viability, CellTiter-Fluor protease, 22 h, 0.1 nM estradiol agonist added; series mostly up to 92.4 µM
Inconclusive results are not listed. Calls of active or inactive are those of the source. Calls come from the whole dose curve; as a rule, active = well fitted cell-killing curve with a large enough effect in the repeat runs; inconclusive = weak or mixed curves, or effect the other way; inactive = flat fitted curve, though single readings scatter.
RECORDED METRIC: activity change, negative = cytotoxicity

COMPOUND | RESULT
CN1CCCC1 | inactive
CCOc1ccc(C(=O)OCCN(CC)CC)cc1 | inactive
O=C(O)CNC(=O)c1ccc([N+](=O)[O-])cc1 | inactive
OCCOc1ccc(OCCO)cc1 | inactive
CCO/C([O-])=N/c1c[n+](N2CCOCC2)no1 | inactive
CCN(CC)CCOCCOC(=O)C1(c2ccccc2)CCCC1 | inactive
CC(=O)Nc1ccc(S(N)(=O)=O)cc1 | inactive
FC(F)OC(Cl)C(F)(F)F (stereo not given) | inactive
CN1CCC(=C2c3ccccc3CC(=O)c3sccc32)CC1 | inactive
CCCCCCCCCCCCCCCCC | inactive
C[C@H]1C[C@@H](O)CC(C)(C)C1 | inactive
N#Cc1ccc(C2CCCc3cncn32)cc1 (stereo not given) | inactive
NS(=O)(=O)c1ccccc1Cl | inactive
c1cnc(N2CCN(Cc3ccc4c(c3)OCO4)CC2)nc1 | inactive
NS(=O)(=O)c1cc(C(=O)NN2C[C@H]3[C@H]4CCC(C4)[C@H]3C2)ccc1Cl | inactive
O=[N+]([O-])c1ccc(F)cc1F | inactive
CCCCCCCCCCCC | inactive
CCOC(=O)C(=O)OCC | inactive
COCCCOCCCOC | inactive
CCOC(=O)CCC(C)=O | inactive
CN1N=C(C(N)=O)CCC1=O | inactive
CC(C)(C)c1nnc(NS(=O)(=O)c2ccccc2)s1 | inactive
C1OCOCO1 | inactive
CCCCC/C=C\CCC=O | inactive
CCCCCSCCCCC | inactive

* * *

EXPERIMENT: A CellTox Green Cytotoxicity Assay to monitor cytotoxicity in HEK293 cells - 8 hour (AID 1224884); further: on the % scale 0 is the no-effect control and ±100 the full control effect; nearly all actives have a fitted effect of over 35% in size
STATED CONDITIONS: CellTox Green fluorescence; series mostly up to 76.8 µM
Excerpt: National Center for Advancing Translational Sciences [NCATS] NIH Chemical Genomics Center [NCGC] U.S. Environmental Protection Agency [EPA] National Institutes of Environmental Health Sciences [NIEHS] National Toxicology Program [NTP] Cell-based models are critical for drug discovery. […] Viable cells produce no appreciable increases in fluorescence. Therefore, the fluorescence signal produced by the binding interaction with dead cell DNA is proportional to cytotoxicity. […]
Results filed as inconclusive are left out. Active and inactive are the calls of the source. The call rests on the fitted dose curve; in most records, active means well fitted activation curve with a large enough effect in the repeat runs; inconclusive means weak or mixed curves; inactive means flat fitted curve, though single readings scatter.
RECORDED METRIC: cytotoxicity increase

MOLECULE | RECORDED METRIC | RESULT
C=C(C)C(=O)OCCCCCCCC(C)C | cytotoxicity increase | inactive
O=C(CCCN1CCC(O)(c2cccc(C(F)(F)F)c2)CC1)c1ccc(F)cc1 | cytotoxicity increase | inactive
CC(=O)N(CC(O)CO)c1c(I)c(C(=O)NCCO)c(I)c(C(=O)NCC(O)CO)c1I (configuration not stated) | cytotoxicity increase | inactive
CC1(C)CO[C@@H](CC(=O)O)CN1 | cytotoxicity increase | inactive
CCCC(=O)O[C@]1(C(=O)CO)CC[C@H]2[C@@H]3CCC4=CC(=O)CC[C@]4(C)[C@H]3[C@@H](O)C[C@@]21C | cytotoxicity increase | inactive
C[N+](C)(C)CC(O)CC(=O)[O-] (configuration not stated) | cytotoxicity increase | inactive
O=[N+]([O-])c1ccc(F)cc1F | cytotoxicity increase | inactive
NC(=O)c1ccc(N)cc1 | cytotoxicity increase | inactive
CCOC(=O)c1cccc(N)c1 | cytotoxicity increase | inactive
Nc1c2c(nc3ccccc13)CCCC2O (configuration not stated) | cytotoxicity increase | inactive
Cc1cccn2c(=O)c(-c3nnn[nH]3)cnc12 | cytotoxicity increase | 9.95% [at 15.8 µM] (inactive)
COc1cc(C(=O)N2CCCCCCC2)cc(OC)c1OC | cytotoxicity increase | inactive
